- Test system: DU145 (prostate cancer)
- Test Method Notes: Effect of compounds on tumor cell lines (assay of Latham et al.), DU145
- Format: cell-based
- Assay Setup: DU145 cells, 96 hours after treatment, 1 μM to 100 μM; read-out: DU 145 potency (IC50)
molecules and their reported IC50
Metric: IC50

1. Cc1ccc(CSC(=Cc2cc([N+](=O)[O-])ccc2F)C(=O)c2ccc(Cl)cc2)cc1; 1 to 10 µM
2. COc1ccc(C=C(SCc2ccc(F)cc2)C(=O)c2ccc(Br)cc2)cc1; 25 to 50 µM
3. O=C(C(=Cc1ccc(Br)cc1)SCc1ccc(F)cc1)c1ccc(Cl)cc1; 10 to 25 µM
4. O=C(O)c1ccc(C(=O)C(=Cc2ccc(N3CCN(Cc4ccccc4)CC3)c([N+](=O)[O-])c2)SCc2ccc(F)cc2)cc1; 1 to 10 µM
5. COc1ccccc1C=C(SCc1ccc(C)cc1)C(=O)c1ccc(Cl)cc1; 10 to 25 µM
6. CN(C)c1ccc(C=C(SCc2ccc(Cl)cc2)C(=O)c2ccc([N+](=O)[O-])cc2)cc1; > 100 µM
7. O=C(O)c1ccc(C(=O)C(=Cc2ccc(Cl)c([N+](=O)[O-])c2)SCc2ccc(F)cc2)cc1; 1 to 10 µM
8. O=C(O)c1ccc(C(=O)/C(=C\c2ccc(Br)cc2)SCc2ccc(Br)cc2)cc1; 1 to 10 µM
9. Cc1ccc(CSC(=Cc2ccc(Cl)cc2)C(=O)c2ccc(Cl)cc2)cc1; 10 to 25 µM
